- subject.of.test: T1, glucose-dependent insulinotropic peptide (gastric inhibitory polypeptide) receptor (GIPR) (human, UniProt P48546 22-466)
- T1 sequence (looked up): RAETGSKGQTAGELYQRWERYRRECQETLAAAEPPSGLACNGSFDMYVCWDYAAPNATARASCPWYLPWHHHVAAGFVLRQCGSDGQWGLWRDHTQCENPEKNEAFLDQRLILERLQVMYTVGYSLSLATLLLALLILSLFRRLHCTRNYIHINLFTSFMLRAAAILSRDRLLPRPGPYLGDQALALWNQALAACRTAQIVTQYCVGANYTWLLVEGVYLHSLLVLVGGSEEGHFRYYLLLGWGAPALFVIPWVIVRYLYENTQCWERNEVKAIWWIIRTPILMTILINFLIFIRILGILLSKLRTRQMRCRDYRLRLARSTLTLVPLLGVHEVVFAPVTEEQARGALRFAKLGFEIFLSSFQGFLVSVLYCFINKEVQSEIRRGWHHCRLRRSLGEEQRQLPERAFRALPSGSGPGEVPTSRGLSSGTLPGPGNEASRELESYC
- assay.method.text: cell-based or functional assay
Starred links: 1 amine or outer side, 2 acyl side, 3 side chain; linkers in the order of their positions; H or OH if unused. Non-standard residues stand in square brackets, D forms with d. Groups on a side chain read outwards from the residue. Primed or numbered codes have the meaning given here. No end group written: not given here. *: point of attachment. γGlu = O=C(O)[C@H](CCC(=O)[*:2])N[*:1]; Stearoyl = CCCCCCCCCCCCCCCCCC(=O)*; αMeF = C[C@](N)(Cc1ccccc1)C(=O)O; αMeK = C[C@](N)(CCCCN)C(=O)O; αMeS = C[C@](N)(CO)C(=O)O; PEG2′ = not defined here; Aib = CC(C)(N)C(=O)O
Property: cAMP Primary assay EC50 GIP-R; scope: individual binders
Give just the numeric value; nM need not be written.

INSERT INTO results (binder, endpoint_result) VALUES
  ('H[Aib]EGS[αMeF]TSDV[αMeS]S[αMeF]LEGEAA[αMeK]E[αMeF]IA[αMeF]VK([PEG2′-PEG2′-γGlu-Stearoyl])[αMeK]GG-NH2 [SEQ ID NO 102]', 25);

Form field cAMP Primary assay EC50 GIP-R, entry H[Aib]EGS[αMeF]TSDV[αMeS]K([PEG2′-PEG2′-γGlu-Stearoyl])[αMeF]LEGEAA[αMeK]E[αMeF]IA[αMeF]VV[αMeK]GG-NH2 [SEQ ID NO 117] : 25
